Test system: OVCAR-3 ovarian
protocol-summary: NCI tumour cell line growth inhibition, 48 h
// reported TGI per item
Supply the numeric figure in µM, leaving out any unit text.

Below, each entry is followed by its recorded TGI result.
CCC(=O)c1c(C(F)(F)F)n([O-])c2cc(F)c(F)cc2[n+]1=O
0.836
O=C1C(CN2CCOCC2)CCCC1CN1CCOCC1 (stereo unspecified)
8.21
CCc1nc2ccc(NCCN(C)C)c3c(=O)c4ccccc4n1c23
4.45
CC(=O)NNc1nc(C)c(C(=O)NNC(=O)C(=O)Nc2ccc(Cl)cc2Cl)s1
50.5

Find TGI (OVCAR-3 ovarian) for the entry "CCCCCCCCCCCC[n+]1ccc2ccccc2c1" 1.89

What would you report for "COc1cc2nc3cc([N+](=O)[O-])ccc3c(NCCNCC(C)(C)O)c2cc1OC" ? 1.3

Data provenance is PubChem BioAssay (NCI).
